experiment.description: logP by HPLC on reversed-phase column (C 18), EEC Directive 79/831 Annex V.A8
Type: physicochemical
test.settings: C 18, 40° C., 0.1% aqueous formic acid and acetonitrile gradient
experimental.readout: LogP

Here's what some known entries look like.
Cn1cc(C(=O)N(Cc2ncc(C(F)(F)F)cc2Cl)C2CC2)c(C(F)(F)F)c1 [Compound 17]; 3.55
Cn1cc(C(=O)N(Cc2ncc(C(F)(F)F)cc2Cl)C2CCCC2)c(C(F)F)n1 [Compound 79]; 3.68

a. CC(c1ncc(C(F)(F)F)cc1Cl)N(C(=O)c1sccc1I)C1CC1 (centres unmarked) [Compound 12]
b. O=C(c1ccnn1-c1ccccc1)N(Cc1ncc(C(F)(F)F)cc1Cl)C1CC1 [Compound 63]
Which of the two items, a and b , has the greater recorded LogP? Your answer should be the label of the entry you select. a

I. Cc1nc(C(F)(F)F)c(C(=O)N(C2CC2)C(C)c2ncc(C(F)(F)F)cc2Cl)s1 (centres unmarked) [Compound 30]
II. Cc1nn(C)cc1C(=O)N(C1CC1)C(C)c1ncc(C(F)(F)F)cc1Cl (centres unmarked) [Compound 56]
Compare I and II by numeric LogP and name the larger one. Give the chosen item's label as your response. I
(I: 4.80, II: 2.79)

----------
experiment.description: logP by HPLC on reversed-phase column (C 18), EEC Directive 79/831 Annex V.A8
Assay type: physicochemical
test.settings: C 18, 40° C., 0.1% aqueous formic acid and acetonitrile gradient
Procedure: Temperature: 40° C.; Mobile phases: 0.1% aqueous formic acid and acetonitrile; linear gradient from 10% acetonitrile to 90% acetonitrile. Calibration was carried out using unbranched alkan-2-ones (comprising 3 to 16 carbon atoms) with known logP values (determination of the logP values by the retention times using linear interpolation between two successive alkanones).
experimental.readout: LogP

I. COc1nn(C)cc1C(=O)N(Cc1ncc(C(F)(F)F)cc1Cl)C1CCCC1
II. CC(c1ncc(C(F)(F)F)cc1Cl)N(C(=O)c1ccsc1I)C1CC1 (centres unmarked)
Identify the entry with the larger LogP. Options: I and II Identify your pick by its label. II

----------
experiment.description: logP by HPLC on reversed-phase column (C 18), EEC Directive 79/831 Annex V.A8
Format: physicochemical
test.settings: C 18, 40° C., 0.1% aqueous formic acid and acetonitrile gradient
Experimental: Temperature: 40° C.; Mobile phases: 0.1% aqueous formic acid and acetonitrile; linear gradient from 10% acetonitrile to 90% acetonitrile. Calibration was carried out using unbranched alkan-2-ones (comprising 3 to 16 carbon atoms) with known logP values (determination of the logP values by the retention times using linear interpolation between two successive alkanones).
experimental.readout: LogP

# annotated cases, reported LogP shown
Cc1nn(C)cc1C(=O)N(Cc1ncc(C(F)(F)F)cc1Cl)C1CC1 [Compound 55]; 2.53
Cc1occc1C(=O)N(Cc1ncc(C(F)(F)F)cc1Cl)C1CC1 [Compound 8]; 3

A. COc1nn(C)cc1C(=O)N(Cc1ncc(C(F)(F)F)cc1Cl)C1CC1 [Compound 39]
B. Cn1ncc(C(=O)N(Cc2ncc(C(F)(F)F)cc2Cl)C2CC2)c1Cl [Compound 57]
Lower LogP: A or B ? Give the label of your selection. A
(A: 2.43, B: 3.92)

----------
experiment.description: logP by HPLC on reversed-phase column (C 18), EEC Directive 79/831 Annex V.A8
Assay type: physicochemical
test.settings: C 18, 40° C., 0.1% aqueous formic acid and acetonitrile gradient
Experimental: Temperature: 40° C.; Mobile phases: 0.1% aqueous formic acid and acetonitrile; linear gradient from 10% acetonitrile to 90% acetonitrile. Calibration was carried out using unbranched alkan-2-ones (comprising 3 to 16 carbon atoms) with known logP values (determination of the logP values by the retention times using linear interpolation between two successive alkanones).
experimental.readout: LogP

Answered cases to consult:
Cc1cc(C(=O)N(C2CC2)C(C)c2ncc(C(F)(F)F)cc2Cl)c(C(F)(F)F)o1 (stereo not drawn); 5.19
Cc1ccoc1C(=O)N(Cc1ncc(C(F)(F)F)cc1Cl)C1CC1; 3.78
Cc1nc(C(F)F)c(C(=O)N(Cc2ncc(C(F)(F)F)cc2Cl)C2CCCC2)s1; 4.25
Cc1noc(C)c1C(=O)N(Cc1ncc(C(F)(F)F)cc1Cl)C1CC1; 3
Cn1cc(C(=O)N(Cc2ncc(C(F)(F)F)cc2Cl)C2CC2)c(I)n1; 2.82

A. Cn1cc(C(=O)N(Cc2ncc(C(F)(F)F)cc2Cl)C2CCCC2)c(C(F)(F)F)c1
B. COC(=O)C(c1ncc(C(F)(F)F)cc1Cl)N(C(=O)c1c(C)nn(C)c1F)C1CC1 (stereo not drawn)
Lower LogP: A or B ? Identify your selection by its label. B

A. Cc1nc(C(=O)N(C2CC2)C(C)c2ncc(C(F)(F)F)cc2Cl)c(C)o1 (stereo not drawn)
B. Cc1cc(C(=O)N(Cc2ncc(C(F)(F)F)cc2Cl)C2CC(C)CC(C)(C)C2)c(C)o1 (stereo not drawn)
Could you point out whether the larger LogP belongs to A or to B ? Answer by quoting the chosen item's label. B

A. Cc1nc(C(F)F)c(C(=O)N(C2CC2)C(C)c2ncc(C(F)(F)F)cc2Cl)s1 (stereo not drawn)
B. CCOc1nn(C)cc1C(=O)N(Cc1ncc(C(F)(F)F)cc1Cl)C1CC1
Parameter metric = LogP. Return the lower-valued option from A and B . Identify your selection by its label. B
